As shown below, each of these molecules has a reported IC50 value.
# targetOrTestSystem: 11β-HSD1 (Homo sapiens, UniProt P28845)
# Construct: detecting cortisol generated from cortisterone by human liver microsomes; from tissue; host or cells: human liver microsomes
# Sequence (P28845 whole entry): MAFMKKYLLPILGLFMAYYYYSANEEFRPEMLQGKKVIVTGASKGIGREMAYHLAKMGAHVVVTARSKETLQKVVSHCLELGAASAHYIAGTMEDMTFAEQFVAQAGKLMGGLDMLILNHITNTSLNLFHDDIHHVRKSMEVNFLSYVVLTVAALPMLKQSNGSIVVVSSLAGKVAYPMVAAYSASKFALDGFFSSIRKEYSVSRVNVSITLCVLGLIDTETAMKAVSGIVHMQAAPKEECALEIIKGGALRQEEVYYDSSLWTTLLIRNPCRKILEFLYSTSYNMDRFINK
# test: In vitro inhibition of 11β-HSD1, HTRF detection of cortisol generated from cortisone by human liver microsomes
# Format: biochemical
# testContext: 11β-HSD IC50 (nM), 1 hour at 37° C., pH 6.0, NADPH 200 μM, cortisone 80 nM, inhibition relative to carbenoxolone signal
observable: IC50 (nM)

>>> valueobserved("COc1ccc2c(c1N)[C@]1(C)CCN(C(=O)c3ccc4nc[nH]c4c3)[C@H](C2)[C@H]1C [Example 267]")
66
>>> valueobserved("C[C@@H]1[C@@H]2Cc3ccc(O)cc3[C@@]1(C)CCN2C(=O)c1ccc2nc[nH]c2c1 [Example 54]")
529
>>> valueobserved("CC12CCN(C(=O)c3ccc4nc[nH]c4c3)C(Cc3cc(F)ccc31)C2(C)C (stereo not drawn) [Example 145]")
108
